Provenance of the data: PubChem BioAssay AID179

# Tested on: CEM cells HIV-1 protection, formazan growth assay
# ASSAY DETAILS: NCI AIDS Antiviral Assay
# SETUP CONDITIONS: measured here: growth of uninfected CEM cells
MEASURE NAME: IC50

Request: May I ask what IC50 has been recorded for CCn1cnc2c(NC(C)=O)ncnc21 ?
Response: > 200 µM

Request: Entry CCOC(=O)NNP(=O)(NNC(=O)OCC)c1ccccc1 has what IC50?
Response: > 110 µM

Request: // IC50 lookup, key: CP1CCC(O)(c2ccccc2)CC1 (stereo not given)
Response: > 200 µM

Request: Looking for the measured IC50 of Cc1nc2ccc(N=NN(C)C)cc2[nH]1 , can you help?
Response: > 200 µM

Request: Need IC50 of CC(=O)CCn1[nH]c(=O)c(Cl)c(Cl)c1=O , thanks.
Response: > 1000 µM

* * *

# System: CEM cells HIV-1 protection, formazan growth assay
# ASSAY DETAILS: NCI AIDS Antiviral Assay
# SETUP CONDITIONS: measured here: growth of uninfected CEM cells
pIC50: −log10 of the molar value.
MEASURE NAME: pIC50

Request: What measured pIC50 goes with CC1=Nc2ccc(C)cc2N=C(C)C1 ?
Response: < 3.70

Request: For C#CC1(O)CCC2[C@@H]3CCc4cc(Oc5nc(F)nc(-c6c(C)c(C(=O)OCC)n7ccccc67)n5)ccc4C3CC[C@@]21C (stereo not given in full) , what is its reported pIC50?
Response: < 4.00

Request: What value of pIC50 has been recorded for this entry: CCOC(=O)/C(=C\c1ccc(C(F)(F)F)cc1)[Se]c1ccccc1
Response: < 4.74

Request: Report pIC50 for O=C(CC(=O)Nc1ccccc1)Nc1ccccc1 please.
Response: < 3.99

Request: Can you share its pIC50? I mean this molecule: O=C(Cc1nc(-c2ccccc2)cc(=O)n1-c1ccccc1Cl)c1ccncc1
Response: < 5.87

* * *

# System: CEM cells HIV-1 protection, formazan growth assay
# ASSAY DETAILS: NCI AIDS Antiviral Assay
# SETUP CONDITIONS: measured here: growth of uninfected CEM cells
Hi there, I'd appreciate the recorded IC50 for every entry that follows.

Request: // IC50 lookup, key: COc1ccc(C2SC(N)=Nc3c2c(C)nn3C(=O)c2ccc(Cl)cc2)cc1OC (stereo not drawn)
Response: > 200 µM

Request: Any idea what its IC50 is? The compound is NCCCN1CCN(CCCN)CC1 (tested in a mixture with another compound)
Response: > 200 µM

Request: Look up IC50: CCOC(=O)/C(O)=C/c1cc(=O)n(C)c2ccccc12
Response: > 200 µM

Request: I would be grateful if you could share the reported IC50 for N#CC(C(=O)/C(=N\NC(N)=O)C(C#N)c1ccccc1)c1ccccc1 (stereo not drawn) .
Response: > 724 µM

Request: Requested field: IC50. Item: O=C1c2ccccc2CCCCCCCCCCC12OCCCO2
Response: > 200 µM

Request: What does the record list as IC50 for Cc1cc(C)c2cnnn2n1 ?
Response: > 1700 µM

Request: // lookup IC50 for Cc1cn(C2CCC(CO)(C(F)(F)F)O2)c(=O)[nH]c1=O (stereo not drawn)
Response: > 200 µM

Request: Look up IC50: CC1C2CC(CC2N)C1(C)C (stereo not drawn)
Response: > 162 µM

Request: Looking for the measured IC50 of COc1ccc2nc3cc(Cl)ccc3c(Nc3ccccc3-c3ccccc3Nc3c4ccc(Cl)cc4nc4ccc(OC)cc34)c2c1 , can you help?
Response: > 4.07 µM

Request: I have this compound here, CC(=O)OCC1OC(Nc2ccc3nc(C)n(-c4cccc(C)c4)c(=O)c3c2)C(OC(C)=O)C(OC(C)=O)C1OC(C)=O (stereo not drawn) , and I need its recorded IC50.
Response: > 126 µM

Request: IC50 for CCC1(c2ccc(OC)c(OC)c2)CCN(S(=O)(=O)c2ccc(C)cc2)C1 (stereo not drawn) ?
Response: > 200 µM

Request: What value of IC50 has been recorded for this entry: OC1Cn2cc(Br)c[n+]2C1 (stereo not drawn)
Response: > 200 µM

Request: Dear colleague, I am looking for the recorded IC50 of the following compound: Cn1c2ccccc2c2[nH]c3ccccc3c(=O)c21
Response: 13.8 µM

Request: So what does the record say about IC50 for CCO/C=C(\C(=O)OC)S(=O)(=O)c1ccc(C)cc1 ?
Response: > 200 µM

Request: Requested read-out: IC50. Entry: COc1cc2c3c(c1OC)-c1[nH]c4ccccc4c1C1CCCN(CC2)C31 (stereo not drawn)
Response: 15.1 µM

Request: What IC50 value was documented for this compound, O=C1c2ccccc2C(=O)N1C/C=N/NS(=O)(=O)c1ccc(F)cc1 ?
Response: > 363 µM

Request: Form field: reported IC50 of CCOC(=O)c1cnc2c3c(noc13)CCC2
Response: 34.7 µM

Request: Requested read-out: IC50. Entry: C=C[C@@]1(O)CCCC[C@@H]1CC(Sc1ccccc1)Sc1ccccc1
Response: 19.5 µM

Request: Recorded IC50 of CCC1(CC)C(=O)[N-]C(=O)[N-]C1=O.[Au+].[Au+].c1ccc([PH+](c2ccccc2)c2ccccc2)cc1.c1ccc([PH+](c2ccccc2)c2ccccc2)cc1 , please.
Response: > 6.61 µM

Request: For the compound shown here, CCC(C)C1C(=O)ON=C1N (stereo not drawn) , give the reported IC50.
Response: > 200 µM

Request: Could you tell me which IC50 is on file for COC1CCC(OS(C)(=O)=O)CO1 (stereo not drawn) ?
Response: 33.9 µM

Request: So what does the record say about IC50 for CCN(CC)C(=O)N1CN(c2ccccc2)C2(CCN(CCCC3(c4ccc(F)cc4)OCCO3)CC2)C1=O ?
Response: 27.5 µM

Request: Data request, read-out IC50, for Nc1c(Cl)ncnc1N[C@@H]1C[C@H]1CO
Response: > 200 µM

Request: What value of IC50 has been reported for the following compound? CCCc1cc(=O)oc2c(C=O)c(O)cc(O)c12
Response: 63.1 µM

Request: Look up IC50 for this compound: COC(=CN=Nc1nc(C#N)c(C#N)[nH]1)OC
Response: 162 µM

Request: Look at this compound and give its reported IC50. O=C1NC2(CCCCC2)OC12CCCCC2
Response: > 6.46 µM

Request: Returns the measured IC50 for the input compound. Input: COc1cc2ccc1OCc1cccc(n1)COc1ccc(cc1OC)C=NCCNCCN=C2
Response: > 200 µM

Request: Requested field: IC50. Item: CN(C)c1ccc2c3c(c(=O)oc2c1)CCC3
Response: > 79.4 µM

Request: Entry O=C(Nc1ccc([N+](=O)[O-])cc1)N(c1ccccc1)c1cc(N2CCOCC2)ccn1 has what IC50?
Response: 39.8 µM

Request: Can you look up the measured IC50 of CCOC(=O)C(=[N+]=[N-])C(=O)CN1C(=O)c2ccccc2C1=O for me?
Response: > 437 µM

Request: Reported IC50 for C=C=C(CC(CC=C(C)C)(C(C)=O)C(=O)OC(C)(C)C)S(=O)(=O)c1ccccc1 (stereo not drawn) : what is it?
Response: 6.17 µM

Request: Look up IC50 for this compound: COc1ccc(C(Nc2ccc([N+](=O)[O-])cc2)P(=O)(c2ccccc2)c2ccccc2)cc1 (stereo not drawn)
Response: 10.5 µM

Request: // lookup IC50 for CCC(NC(C)c1ccccc1)C(O)c1ccc(OCc2ccccc2)c(OCc2ccccc2)c1 (stereo not drawn)
Response: 10.7 µM

* * *

For each entry below, report its pEC50 value.
# Test system: CEM cells HIV-1 protection, formazan growth assay
# ASSAY DETAILS: NCI AIDS Antiviral Assay
pEC50: −log10 of the molar value.

Request: Short answer please: pEC50, CEM cells HIV-1 protection, formazan growth assay, entry CC1CCN(CC(=O)N2c3ccccc3Sc3cc4ccccc4cc32)CC1
Response: < 3.82

Request: Return pEC50 measured with CEM cells HIV-1 protection, formazan growth assay given this compound: COc1cccc(NC(=O)C(=O)C(C(=O)c2ccccc2F)C2OC(=O)c3ccccc32)c1 (stereo not drawn)
Response: < 3.54

Request: State its pEC50 on CEM cells HIV-1 protection, formazan growth assay: N#Cc1ccc(-c2nc(C#N)c(N)o2)cc1
Response: 3.87

Request: // map CC(=O)O[C@H]1CCN2C(=O)C=CC(OCc3ccccc3)C12 (stereo partly drawn) to recorded pEC50 (system: CEM cells HIV-1 protection, formazan growth assay)
Response: < 3.08

Request: Requested read-out pEC50, target or system CEM cells HIV-1 protection, formazan growth assay, entry CC(=O)N(C(C)=O)c1ncc(-n2nc(-c3ccccc3)cc2-c2ccccc2)c(-c2ccccc2)n1
Response: < 3.70

Request: Recall the recorded pEC50 for Cc1cccnc1NC(=S)Nc1ncccc1C with CEM cells HIV-1 protection, formazan growth assay and state it.
Response: < 3.70

Request: Provide the documented pEC50 with CEM cells HIV-1 protection, formazan growth assay as the system for Cc1ccccc1NC(=S)Nc1ccccn1
Response: < 3.70

Request: Report pEC50 for COc1ccc(Cc2c(-c3ccc(C)cc3)n[nH]c(=O)c2C2C(=O)N(c3ccccc3)N=C2c2ccccc2)cc1 (stereo not drawn) tested on CEM cells HIV-1 protection, formazan growth assay.
Response: < 3.70

Request: GET /values?readout=pEC50&system=CEM cells HIV-1 protection, formazan growth assay&item= Nc1ccc2oc(=O)ccc2c1
Response: < 2.90

Request: What value of pEC50 on CEM cells HIV-1 protection, formazan growth assay does O=C(Nc1ccccc1)c1cc(S(=O)(=O)N2CCNC2=O)c(S)cc1Cl have?
Response: 3.95

Request: GET /values?readout=pEC50&system=CEM cells HIV-1 protection, formazan growth assay&item= COC(=O)C1C(C(=O)OC)C2(OC)c3ccccc3-c3ccccc3C12 (stereo not drawn)
Response: < 3.70

Request: Find the measured pEC50: item O=S(=O)(O)C(O)C(F)(F)C(F)(F)C(F)(F)C(F)(F)C(O)S(=O)(=O)O (stereo not drawn) , target or system CEM cells HIV-1 protection, formazan growth assay.
Response: < 3.70

Request: Entry O=[N+]([O-])c1ccc(Nc2ccc(Cl)cc2)c2nonc12 , system CEM cells HIV-1 protection, formazan growth assay: what pEC50 was measured?
Response: < 4.36

Request: For CEM cells HIV-1 protection, formazan growth assay, provide pEC50 of O=C1CCCSCCCC(=O)CCCSCCC1 please.
Response: < 4.46

Request: Form field - read-out: pEC50; system: CEM cells HIV-1 protection, formazan growth assay; submitted item: COc1ccc2c(c1)C(O)(C(F)(F)F)c1cc(C(=O)C(F)(F)F)c3ccccc3c1N2 (stereo not drawn)
Response: < 5.21

Request: What reported pEC50 corresponds to CC(C)(C)OC(=O)N1Cc2cc(O)ccc2C[C@H]1C(=O)O on CEM cells HIV-1 protection, formazan growth assay?
Response: < 3.70

Request: Record Nc1ccc(OCC(O)N2C(=O)c3ccccc3C2=O)cc1 (stereo not drawn) : what is its pEC50 with CEM cells HIV-1 protection, formazan growth assay?
Response: < 3.70

Request: Record Cc1c(C(=O)c2ccccc2)n(COCCCO[Si](C)(C)C(C)(C)C)c(=O)[nH]c1=O : what is its pEC50 with CEM cells HIV-1 protection, formazan growth assay?
Response: < 3.70

Request: // fetch CEM cells HIV-1 protection, formazan growth assay pEC50 for Cc1nc(Nc2ccccc2C)c2ccsc2n1
Response: < 3.58

Request: Given the entry Cc1ccc(NC(=O)C(=O)CC(=O)c2sc(Nc3c(C)cccc3C)nc2C)cc1C , what pEC50 was observed with CEM cells HIV-1 protection, formazan growth assay?
Response: < 3.70

Request: Please provide the recorded pEC50 for COc1ccc(N2C(=O)C3c4[nH]c5c(C)cccc5c4C4CCC(C(C)C)CC4C3C2=O)cc1 (stereo not drawn) , tested on CEM cells HIV-1 protection, formazan growth assay.
Response: < 3.70

Request: Requested read-out pEC50, target or system CEM cells HIV-1 protection, formazan growth assay, entry O[C@@H]1CCN(Cc2ccccc2)C[C@@H]1CNC12CC3CC(CC(C3)C1)C2
Response: < 4.14

Request: Record COC(=O)C1(O)c2ccccc2N=C2C1CCN2C (stereo not drawn) : what is its pEC50 with CEM cells HIV-1 protection, formazan growth assay?
Response: < 4.56

Request: Under CEM cells HIV-1 protection, formazan growth assay: pEC50 value of O=C(CSc1nc(-c2ccccc2)c(-c2ccccc2)[nH]1)NNC(=S)Nc1ccccc1 ?
Response: < 4.25

Request: // lookup pEC50 | system=CEM cells HIV-1 protection, formazan growth assay | key= C/C(=N\O)[C@H]1CC[C@H]2[C@@H]3CC[C@@H]4C/C(=N/O)CC[C@]4(C)[C@H]3[C@@](C)(O)C[C@]12C
Response: < 3.70

Request: What is its pEC50 for CEM cells HIV-1 protection, formazan growth assay? Entry: CC(C)(C)c1cc(C(P(=O)(O)O)P(=O)(O)O)cc(C(C)(C)C)c1O
Response: < 3.28

Request: Which pEC50 is reported with CEM cells HIV-1 protection, formazan growth assay for this entry: CC1(C)C=Cc2c(cc3oc4ccc5c(c4c(=O)c3c2O)C=CC(C)(C)O5)O1 ?
Response: 4.44

Request: Request body: readout pEC50, system CEM cells HIV-1 protection, formazan growth assay, query Nc1ccc(N=Nc2ccc(/C=C/c3ccc(N=Nc4ccc(N)c5ccccc45)cc3S(=O)(=O)O)c(S(=O)(=O)O)c2)c2ccccc12 . Return the value.
Response: < 4.30

Request: For CEM cells HIV-1 protection, formazan growth assay, provide pEC50 of CCN(CC)c1ccc2cc(C(N)=S)c(=N)oc2c1 please.
Response: < 4.21

Request: Give pEC50 (CEM cells HIV-1 protection, formazan growth assay) of the following compound: O=C1/C(=C/c2ccc([N+](=O)[O-])cc2)CNC/C1=C\c1ccc([N+](=O)[O-])cc1
Response: < 5.70

Request: Give recorded pEC50 with CEM cells HIV-1 protection, formazan growth assay for the following compound: c1ccc2cc(C3NCCc4[nH]cnc43)ccc2c1 (stereo not drawn)
Response: < 4.54

Request: I'm curious: which pEC50 was measured for CCOP(=O)(OCC)/C(C#N)=C/c1ccc(F)cc1 tested on CEM cells HIV-1 protection, formazan growth assay?
Response: < 3.05

Request: Param readout= pEC50; system= CEM cells HIV-1 protection, formazan growth assay; entry= O=C(Oc1ccccc1C(=O)O)c1ccccc1O ; returns value.
Response: < 3.70
